Cited source: patent US20260174875A1

# SYSTEM TESTED: T1, human amylin-3(a) receptor (human, UniProt P30988 25-474; O60896 24-148)
# T1 sequence (looked up) 1: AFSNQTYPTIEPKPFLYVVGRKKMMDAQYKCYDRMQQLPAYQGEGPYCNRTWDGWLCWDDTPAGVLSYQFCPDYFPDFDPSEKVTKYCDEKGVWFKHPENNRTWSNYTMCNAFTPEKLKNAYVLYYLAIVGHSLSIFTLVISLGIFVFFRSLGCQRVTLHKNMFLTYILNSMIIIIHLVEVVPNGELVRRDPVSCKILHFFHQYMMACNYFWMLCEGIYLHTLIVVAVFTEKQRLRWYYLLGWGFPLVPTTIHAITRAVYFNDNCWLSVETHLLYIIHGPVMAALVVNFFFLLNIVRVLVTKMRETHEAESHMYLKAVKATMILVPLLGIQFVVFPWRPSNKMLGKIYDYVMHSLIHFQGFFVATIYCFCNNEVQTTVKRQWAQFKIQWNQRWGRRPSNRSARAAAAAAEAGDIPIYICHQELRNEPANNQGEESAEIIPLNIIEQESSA
# T1 sequence (looked up) 2: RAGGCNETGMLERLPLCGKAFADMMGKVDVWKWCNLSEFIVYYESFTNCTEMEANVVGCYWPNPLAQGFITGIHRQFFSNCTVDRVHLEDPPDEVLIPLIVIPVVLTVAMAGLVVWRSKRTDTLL
# EXPERIMENTAL DETAILS: cell-based or functional assay
Numbered stars: 1 amine (or outer) side, 2 acyl side, 3 side chain; on linkers, the order of the positions; unused ones are H or OH. Square brackets hold non-standard residues; d marks the D form. Side chains are listed from the residue outwards. * marks the point of attachment. C18 diacid = O=C(O)CCCCCCCCCCCCCCCCC(=O)*; γGlu = O=C(O)[C@H](CCC(=O)[*:2])N[*:1]; Chem. 28 = not defined here; AEEA = NCCOCCOCC(=O)O; Aib = CC(C)(N)C(=O)O
MEASURED QUANTITY: hAMYR3 Potency, 1% HSA, EC50 [pM] (pM)
Could you give me the number in pM? Just the number is fine.

BINDER	hAMYR3 Potency, 1% HSA, EC50 [pM] / pM
Compound 50 (reading uncertain) peptide: Y[Aib]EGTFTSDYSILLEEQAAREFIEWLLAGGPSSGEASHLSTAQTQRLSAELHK(Chem. 28)LATLPRTETGSGSP-NH2	185

[ask] Give the measured hAMYR3 Potency, 1% HSA, EC50 [pM] of Compound 91 (peptide) peptide: H[Aib]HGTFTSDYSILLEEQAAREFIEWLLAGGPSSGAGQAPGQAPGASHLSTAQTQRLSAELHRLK([AEEA-AEEA-γGlu-C18 diacid])TLPRTETGSGSP-NH2 .
[reply] 28.8

[ask] Entry Compound 36 (reading uncertain) peptide: H[Aib]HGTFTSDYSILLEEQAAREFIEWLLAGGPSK(Chem. 28)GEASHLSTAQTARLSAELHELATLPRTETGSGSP-NH2 please
[reply] 137

[ask] Entry Compound 85 (peptide) peptide: H[Aib]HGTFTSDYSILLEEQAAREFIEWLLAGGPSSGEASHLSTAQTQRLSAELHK([AEEA-AEEA-γGlu-C18 diacid])LATLPRTETGSGAP-NH2 please
[reply] 250
